Data origin: PubChem BioAssay

- Test system: Chordin-like protein 2 (CHRDL2)
- experimentalProtocol: CHRDL2 small-molecule binders, primary screen, biochemical, small-molecule microarray, 635 nm fluorescence (AID 1126);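 further: printed compound slides probed with Chrdl2 protein at 4 µg/mL for 1 h at 4 C; score merges 667 nm emission intensity with signal to noise over three replicate slides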
- runParameters: small-molecule microarray binding, fluorescence 635 nm; higher = more signal
recordedEndpoint: composite z-score
# print the numeric value only

Known composite z-score results, listed for orientation:
# compound, composite z-score
measured = [
    ("O=C(NCCCCCNC(=O)/C(Cc1ccccc1)=N/O)OCc1ccccc1", 0.366),
    ("CCCNC(=O)[C@@H]1c2ccccc2C(=O)N(C(C)C)[C@H]1c1ccc(CO)cc1", -0.605),
    ("N#Cc1ccc(C(O)C2C=CC3C(=O)N(c4ccccc4)C(=O)C3N2Nc2ccccc2)cc1 (centres undefined)", -0.111),
]

API: the following record is the query input.
If you can, please state the reported composite z-score value of "COCCOC(=O)N1C(=O)[C@@]2(c3cc(C#CC4(O)CCCCCC4)ccc31)[C@H](c1ccc(O)cc1)N1[C@H](c3ccccc3)[C@H](c3ccccc3)OC(=O)[C@H]1[C@@H]2C(=O)NC[C@H](O)c1ccccc1" .
0.97
